- test system: ACL (Homo sapiens (Human), UniProt P53396)
- Sequence (P53396 whole entry, species assumed): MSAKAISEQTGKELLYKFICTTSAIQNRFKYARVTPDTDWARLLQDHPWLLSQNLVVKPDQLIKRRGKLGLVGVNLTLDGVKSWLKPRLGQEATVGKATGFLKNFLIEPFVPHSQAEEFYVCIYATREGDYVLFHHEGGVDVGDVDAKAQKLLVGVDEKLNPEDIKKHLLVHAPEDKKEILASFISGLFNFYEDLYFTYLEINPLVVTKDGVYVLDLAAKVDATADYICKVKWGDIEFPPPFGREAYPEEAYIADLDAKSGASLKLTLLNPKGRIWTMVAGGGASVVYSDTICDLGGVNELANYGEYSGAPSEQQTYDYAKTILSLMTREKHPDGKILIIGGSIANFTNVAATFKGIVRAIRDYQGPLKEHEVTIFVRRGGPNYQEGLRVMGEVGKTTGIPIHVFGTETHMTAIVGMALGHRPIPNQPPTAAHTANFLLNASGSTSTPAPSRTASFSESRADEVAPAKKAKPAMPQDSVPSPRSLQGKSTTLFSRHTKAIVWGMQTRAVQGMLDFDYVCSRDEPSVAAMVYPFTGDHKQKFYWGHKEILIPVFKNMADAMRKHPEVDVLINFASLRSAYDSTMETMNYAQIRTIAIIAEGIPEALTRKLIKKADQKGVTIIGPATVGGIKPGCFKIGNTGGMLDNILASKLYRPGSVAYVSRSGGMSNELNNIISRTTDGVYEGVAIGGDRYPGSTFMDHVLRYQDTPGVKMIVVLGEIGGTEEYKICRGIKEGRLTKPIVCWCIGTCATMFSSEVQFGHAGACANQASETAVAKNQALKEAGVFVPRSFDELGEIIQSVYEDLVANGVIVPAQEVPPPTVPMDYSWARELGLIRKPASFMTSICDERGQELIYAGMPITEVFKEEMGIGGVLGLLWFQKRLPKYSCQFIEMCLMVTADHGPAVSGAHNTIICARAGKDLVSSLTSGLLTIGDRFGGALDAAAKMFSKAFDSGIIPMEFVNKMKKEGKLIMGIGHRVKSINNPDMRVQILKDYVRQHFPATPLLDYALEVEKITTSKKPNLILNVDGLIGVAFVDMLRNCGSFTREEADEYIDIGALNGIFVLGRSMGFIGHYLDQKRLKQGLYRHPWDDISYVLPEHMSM
- protocol details: ACLY-MDH Coupled Assay
reported property: IC50

Sample COc1ccc(-c2ccccc2)cc1NS(=O)(=O)c1cc(C(=O)N(C)C)cc(Cl)c1O — what was its IC50?
50 to 500 nM

Can you check O=C(O)c1ccc(-c2ccccc2)cc1NS(=O)(=O)c1cc(Br)cc(C(F)(F)F)c1 next?
50 to 500 nM

What about COc1ccc(-c2ccccc2)cc1NS(=O)(=O)c1cccc(-c2nn[nH]n2)c1 ?
500 to 30000 nM

Would you kindly repeat that for O=S(=O)(Nc1cc(-c2ccccc2)c(F)cc1F)c1cc(-c2nnn[nH]2)cc(Cl)c1O ?
500 to 30000 nM

Input CS(=O)(=O)c1cc(Cl)c(O)c(S(=O)(=O)Nc2cc(-c3ccccc3)c(F)cc2F)c1
50 to 500 nM

Another: COc1ccc(-c2ccccc2)cc1NS(=O)(=O)c1ccc(-c2nn[nH]n2)cc1
> 30000 nM

Also check COC(=O)c1cc(Cl)c(O)c(C(=O)Nc2cc(-c3ccccc3)c(F)cc2F)c1
500 to 30000 nM

How about this compound: O=C(c1cc(Cl)c(O)c(S(=O)(=O)Nc2cc(-c3ccccc3)c(F)cc2F)c1)N1CC[C@H](F)C1
50 to 500 nM

Cool, now O=C(c1cc(Cl)c(O)c(S(=O)(=O)Nc2cc3ccsc3cc2F)c1)N1CCC1
500 to 30000 nM

Try COc1ccc(-c2ccccc2)cc1NS(=O)(=O)c1cc(C#N)cc(Cl)c1O next.
50 to 500 nM

// same read-out, input: COc1ccc(-c2ccccc2)cc1NS(=O)(=O)c1cc(C(N)=O)cc(Cl)c1O
500 to 30000 nM

Now give it for O=C(O)c1cc(F)c(-c2ccccc2)cc1NS(=O)(=O)c1cc(Cl)cc(Cl)c1O too.
500 to 30000 nM

Same read-out for O=S(=O)(c1cc(Cl)cc(Cl)c1O)N(Cc1ccccc1)Cc1cccc(-c2ccccc2)c1 ?
500 to 30000 nM

Can you check COc1ccc(-c2ccccc2)cc1NS(=O)(=O)c1cc(Cl)cc(Br)c1O next?
< 50 nM

Another compound to look at: COc1c(Cl)cc(C(=O)O)cc1S(=O)(=O)Nc1cc(-c2ccccc2)c(F)cc1F
500 to 30000 nM

Then this compound: Cn1ccnc1-c1cc(Cl)c(O)c(S(=O)(=O)Nc2cc(-c3ccccc3)ccc2O)c1
500 to 30000 nM

Proceed to O=C(c1cc(Cl)c(O)c(S(=O)(=O)Nc2cc(-c3ccccc3)c(F)cc2F)c1)N1CCCCC1
500 to 30000 nM

Attribution: patent US11555012B2
